Values were extracted from the PETadex activity labels (doi:10.1016/j.ijbiomac.2025.149745).

Provide the reported Proxy for plastic degradation of each item.
- Substrate: pNPB
- experiment: Proxy for plastic degradation [kcat/Km (catalytic efficiency)] (mM⁻¹s⁻¹)
- test-settings: pH 7
Give bare numbers.

unnamed (protein) MDGVLWRVRTAALMAALLALAAWALWASPSVEAQSNPYQRGPNPTRSALTADGPFSVATYTVSRLSVSGFGGVIYYPTGTSLTFGGIAMSPGYTADASSLAWLGRRLASHGFVVLVINTNSRFDYPDSRASQLSAALNYLRTSSPSAVRARLDANRLAVAGWSMGGGGTLRIAEQNPSLKAAVPLTPWHTDKTFNTSVPVLIVGCEADTVAPVSQHAIPFYQNLPSTTPKVYVELDNASHSCPNSNNAAISVYTISWMKLWVDNDTRYRQFLCNVNDPALSDFRTNNRHCQCQ    2.8

The following proteins each have a reported value; give each one's Proxy for plastic degradation.
1. unnamed (protein) MNFPRASRLMQAAVLGGLMAVSAAATAQTNPYARGPNPTAASLEASAGPFTVRSFTVSRPSGYGAGTVYYPTNAGGTVGAIAIVPGYTARQSSIKWWGPRLASHGFVVITIDTNSTLDQPSSRSSQQMAALRQVASLNGTSSSPIYGKVDTARMGVMGWSMGGGGSLISAANNPSLKAAAPQAPWDSSTNFSSVTVPTLIFACENDSIAPVNSSALPIYDSMSRNAKQFLEINGGSHFCANSGNSNQALIGKKGVAWMKRFMDNDTRYSTFACENPNSTRVSDFRTANCS
2. unnamed (protein) MDGVLWRVRTAALMAALLALAAWALWASPSVEAQSNPYQRGPNPTRSALTADGPFSVATYTVSRLSVSGFGGVIYYPTGTSLTFGGIAMSPGYTADASSLAWLGRRLASHGFVVLVINTNSRFDYPDSRASQLSAALNYLRTSSPSAVRARLDANRLAVAGWSMGGGGTLRIAEQNPSLKAAVPLTPWHTDKTFNTSVPVLIVGAEADTVAPVSQHAIPFYQNLPSTTPKVYVELDNASHFAPNSNNAAISVYTISWMKLWVDNDTRYRQFLCNVNDPALSDFRTNNRHCQCQ
3. unnamed (protein) MDGVLWRVRTAALMAALLALAAWALWASPSVEAQSNPYQRGPNPTRSALTADGPFSVATYTVSRLSVSGFGGVIYYPTGTSLTFGGIAMSPGYTADASSLAWLGRRLASHGFVVLVINTNSRFDYPDSRASQLSAALNYLRTSSPSAVRARLDANRLAVAGHSMGGGGTLRIAEQNPSLKAAVPLTPWHTDKTFNTSVPVLIVGCEADTVAPVSQHAIPFYQNLPSTTPKVYVELDNASHFCPNSNNAAISVYTISWMKLWVDNDTRYRQFLCNVNDPALSDFRTNNRHCQCQ

Out:
[3.3, 67, 335]
